test: Systemic availability of oxycodone after intranasal insufflation to dogs; conditions: male, beagle, dog, plasma, other: intranasal insufflation, 0.25 mg oxycodone free base equivalents/kg, t½ of intact prodrug, nominal […] equivalents, calculated as ln2/mean k
Reported property: half-life (min)
Answer in min, number only, no unit symbol.

Input: Fill in: half-life of COc1ccc2c3c1O[C@H]1C(OC(=O)CCC(=O)NC(C(=O)O)C(C)C)=CC[C@@]4(O)[C@@H](C2)N(C)CC[C@]314 (stereo in doubt) is ___
Output: 45

----------
system: gut motility in the rat; test: Charcoal propulsion test of GI motility in the rat; format: in vivo; conditions: oral, 30 mg/kg
The reader will find reported % change from vehicle-treated animals, small intestine values listed item by item below.
Answer in %, number only, no unit symbol.

INSERT INTO measurements (compound, numeric_readout) VALUES
  ('COc1ccc2c3c1O[C@H]1[C@@H](OC(=O)CCC(=O)N[C@H](C(=O)O)C(C)C)C=CC4[C@@H](C2)N(C)CC[C@@]341 (stereo partly drawn) [Codeine-[succinyl-(S)-valine] ester, codeine-[succinyl-(S)-valine]ester]', '−15.7'),
  ('COc1ccc2c3c1O[C@H]1[C@@H](O)C=C[C@H]4[C@@H](C2)N(C)CC[C@@]341 [Codeine phosphate hemihydrate]', '−32.1'),
  ('COc1ccc2c3c1O[C@H]1C(OC(=O)CCC(=O)NC(C(=O)O)C(C)C)=CC[C@@]4(O)[C@@H](C2)N(C)CC[C@]314 (stereo in doubt)', '−15.8'),
  ('COc1ccc2c3c1O[C@H]1C(=O)CC[C@@]4(O)[C@@H](C2)N(C)CC[C@]314 [Oxycodone, oxycodone, reference compound]', '−52.2');

Input: Fill in: % change from vehicle-treated animals, small intestine of COc1ccc2c3c1O[C@H]1[C@@H](OC(=O)CCC(=O)NC(C(=O)O)C(C)C)CCC4[C@@H](C2)N(C)CC[C@@]341 (stereo in doubt) is ___
Output: −8.5

Input: Fill in: % change from vehicle-treated animals, small intestine of COc1ccc2c3c1O[C@H]1[C@@H](O)CC[C@H]4[C@@H](C2)N(C)CC[C@@]341.O=C(O)C(O)C(O)C(=O)O [Dihydrocodeine Hydrogen Tartrate, reference compound] is ___
Output: −29.8

----------
test: Systemic availability of hydrocodone in dogs after oral administration of hydrocodone or hydrocodone succinyl valine enol ester; conditions: male, Beagle, dog, plasma, po, 1 mg hydrocodone free base equivalents/kg, t½ of hydrocodone, male dogs, mean
Reported property: half-life (h)
Answer in h, number only, no unit symbol.

Input: Fill in: half-life of COc1ccc2c3c1O[C@H]1C(=O)CC[C@H]4[C@@H](C2)N(C)CC[C@]314 [Hydrocodone, hydrocodone] is ___
Output: 1.54

----------
experiment: In vitro stability of dicarboxylate amino acid ester prodrugs in simulated gastric and intestinal juice, distilled water and pH 10 buffer (HPLC); conditions: pH 10.0, 2 h, 20° C.
The reader will find reported pH 10.0 buffer: % remaining after 2 h/20° C. values listed item by item below.
Answer in %, number only, no unit symbol.

INSERT INTO results (molecule, unit_abbrev, numeric_readout) VALUES
  ('COc1ccc2c3c1O[C@H]1[C@@H](OC(=O)CCC(=O)N[C@H](C(=O)O)C(C)C)C=CC4[C@@H](C2)N(C)CC[C@@]341 (stereo partly drawn) [Codeine-[succinyl-(S)-valine] ester, codeine-[succinyl-(S)-valine]ester]', '%', 92),
  ('COc1ccc2c3c1O[C@H]1C(OC(=O)CCC(=O)NC(C(=O)O)C(C)C)=CC[C@@]4(O)[C@@H](C2)N(C)CC[C@]314 (stereo in doubt)', '%', 64),
  ('COc1ccc2c3c1O[C@H]1C(OC(=O)CCCC(=O)N[C@H](C(=O)O)C(C)C)=CC[C@@]4(O)[C@@H](C2)N(C)CC[C@]314', '%', 75),
  ('CC[C@H](C)[C@H](NC(=O)CCC(=O)OC1=CC[C@@]2(O)[C@H]3Cc4ccc(OC)c5c4[C@@]2(CCN3C)[C@H]1O5)C(=O)O', '%', 66);

Input: Fill in: pH 10.0 buffer: % remaining after 2 h/20° C. of COc1ccc2c3c1O[C@H]1C(OC(=O)CCC(=O)N4CCC[C@H]4C(=O)O)=CC[C@@]4(O)[C@@H](C2)N(C)CC[C@]314 is ___
Output: 80

----------
test: Systemic availability of oxycodone after intranasal insufflation to dogs; details: male, beagle, dog, plasma, other: intranasal insufflation, 0.25 mg oxycodone free base equivalents/kg, Tmax of intact prodrug, nominal […] equivalents, median
Reported property: Tmax (min)
Answer in min, number only, no unit symbol.

Input: Fill in: Tmax of COc1ccc2c3c1O[C@H]1C(OC(=O)CCC(=O)NC(C(=O)O)C(C)C)=CC[C@@]4(O)[C@@H](C2)N(C)CC[C@]314 (stereo in doubt) is ___
Output: 15

----------
assay: Systemic availability of oxycodone after intranasal insufflation to dogs; conditions: male, beagle, dog, plasma, other: intranasal insufflation, 0.25 mg oxycodone free base equivalents/kg, AUC of intact prodrug, nominal […] equivalents, mean
Reported property: AUC (ng·h/mL)
Answer in ng·h/mL, number only, no unit symbol.

Input: Fill in: AUC of COc1ccc2c3c1O[C@H]1C(OC(=O)CCC(=O)NC(C(=O)O)C(C)C)=CC[C@@]4(O)[C@@H](C2)N(C)CC[C@]314 (stereo in doubt) is ___
Output: 10.3

----------
The reader will find reported T50% Cmax of oxycodone values listed item by item below.
test: Comparative oral bioavailability of oxycodone from various dicarboxylate bridged amino acid prodrugs in dogs (nine-way crossover); type: in vivo, dog; conditions: 1 mg/kg oxycodone free base, mean (±sd)

INSERT INTO results (molecule, result) VALUES
  ('CC[C@H](C)[C@H](NC(=O)CCCC(=O)OC1=CC[C@@]2(O)[C@H]3Cc4ccc(OC)c5c4[C@@]2(CCN3C)[C@H]1O5)C(=O)O', '2.8 (±0.2) h.');

Input: Fill in: T50% Cmax of oxycodone of COc1ccc2c3c1OC1C(OC(=O)CCC(=O)N[C@@H](CC(C)C)C(=O)O)=CC[C@@]4(O)[C@@H](C2)N(C)CC[C@]314 (stereo partly drawn) is ___
Output: 1.9 (±0.2) h.

Input: Fill in: T50% Cmax of oxycodone of COc1ccc2c3c1O[C@H]1C(OC(=O)CCC(=O)N4CCC[C@H]4C(=O)O)=CC[C@@]4(O)[C@@H](C2)N(C)CC[C@]314 is ___
Output: 3.4 (±0.9) h.

Input: Fill in: T50% Cmax of oxycodone of COc1ccc2c3c1O[C@H]1C(OC(=O)CCCC(=O)N[C@@H](CC(C)C)C(=O)O)=CC[C@@]4(O)[C@@H](C2)N(C)CC[C@]314 is ___
Output: 3.4 (±0.7) h.

Input: Fill in: T50% Cmax of oxycodone of COc1ccc2c3c1O[C@H]1C(=O)CC[C@@]4(O)[C@@H](C2)N(C)CC[C@]314.Cl [Oxycodone HCl, oxycodone hydrochloride, reference compound] is ___
Output: 2.0 (±0.6) h.

Input: Fill in: T50% Cmax of oxycodone of CC[C@H](C)[C@H](NC(=O)CCC(=O)OC1=CC[C@@]2(O)[C@H]3Cc4ccc(OC)c5c4[C@@]2(CCN3C)[C@H]1O5)C(=O)O is ___
Output: 1.6 (±0.4) h.

Input: Fill in: T50% Cmax of oxycodone of COc1ccc2c3c1O[C@H]1C(OC(=O)CCC(=O)NC(C(=O)O)C(C)C)=CC[C@@]4(O)[C@@H](C2)N(C)CC[C@]314 (stereo in doubt) is ___
Output: 1.6 (±0.3) h.

Input: Fill in: T50% Cmax of oxycodone of COc1ccc2c3c1O[C@H]1C(OC(=O)CCCC(=O)N[C@H](C(=O)O)C(C)C)=CC[C@@]4(O)[C@@H](C2)N(C)CC[C@]314 is ___
Output: 2.9 (±0.3) h.

Input: Fill in: T50% Cmax of oxycodone of COc1ccc2c3c1OC1C(OC(=O)CCC(=O)N[C@@H](CCSC)C(=O)O)=CC[C@@]4(O)[C@@H](C2)N(C)CC[C@]314 (stereo partly drawn) is ___
Output: 2.3 (±0.8) h.

----------
The reader will find reported Cmax values listed item by item below.
experiment: Plasma pharmacokinetics of meptazinol dicarboxylate linked prodrugs after oral gavage to dogs; format: in vivo, dog; settings: beagle, plasma; dog; oral gavage of prodrug, 1 mg meptazinol base equivalents/kg; prodrug level; BLQ = below 0.5 ng/mL; read-out: Dog Cmax (plasma prodrug levels, in brackets)
Answer in ng/mL, number only, no unit symbol.

INSERT INTO results (compound, unit_abbrev, numeric_readout) VALUES
  ('CCC1(c2cccc(OC(=O)/C=C\C(=O)N[C@H](C(=O)O)C(C)C)c2)CCCCN(C)C1 (stereo partly drawn) [Meptazinol [malearyl-(S)-valine] ester]', 'ng/mL', 6);

Please look at the following compound next.
Input: Fill in: Cmax of CCC1(c2cccc(OC(=O)CC(C)(C)CC(=O)N[C@H](C(=O)O)C(C)C)c2)CCCCN(C)C1 (some centres unmarked) is ___
Output: 116
